# study target: T1, GST-tagged recombinant CIB1 (calcium- and integrin-binding protein 1) (UniProt Q99828 9-191)
# T1 construct: Printed molecular weight of GST-CIB1 is 48 kDa against 26 kDa for GST alone, which would fit whole CIB1 (surmised); Vector family pGEX-4T is named for the empty vector; also called GST-CIB1; CIB1-GST
# T1 sequence: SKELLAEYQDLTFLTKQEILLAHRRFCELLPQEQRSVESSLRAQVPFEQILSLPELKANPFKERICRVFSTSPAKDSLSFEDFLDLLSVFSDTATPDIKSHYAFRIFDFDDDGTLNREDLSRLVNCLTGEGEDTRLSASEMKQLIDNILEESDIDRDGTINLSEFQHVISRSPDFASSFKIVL
# protocol notes: fluorescence polarisation; competition, 384-well plate; GST-CIB1 1 or 2 μM, F-αIIb 50 nM, unlabeled αIIb peptide 16-point 1:2 dilution (3.05 nM to 100 μM), points >25 μM excluded; room temperature, 1 h
# experimental conditions: both partners purified
Where no end group is shown, it is not given here.
assay metric: IC50

# binder, result value
records = [
    ("Ac-LVLAMWKVGFFKRNRK (integrin αIIb, stretch at the start of the cytoplasmic domain; last printed residue of the peptide; also called unlabeled peptide; source: synthetic peptide (custom synthesized, Peptide 2.0, purity >95.00%)) [unlabeled αIIb peptide]", "~2700 nM"),
]
